Biological target: IFN-gamma (Homo sapiens, UniProt P01579 P01579:24-161)
Sequence (P01579 24-161, one chain of several): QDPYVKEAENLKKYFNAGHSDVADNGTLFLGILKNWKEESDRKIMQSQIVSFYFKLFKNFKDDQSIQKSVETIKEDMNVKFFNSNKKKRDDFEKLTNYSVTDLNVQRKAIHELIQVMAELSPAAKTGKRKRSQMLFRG
Experiment: inhibition; ELISA day 2; text assigns ARC873 to F3 but printed sequence matches E3
Settings: tags: R&D Systems, Minneapolis; chain copies: 2; putative G4
Experimental: IFN-γ ELISA: The following ELISA method was used to measure the ability of IFN-γ aptamers to inhibit hIFN-γ from binding to the IFNγ-R1 receptor. To capture the IFNγ-R1, 175 ng of IFNγ-R1 (R&D systems, Minneapolis, Minn.) in 100 μl of PBS (pH 7.4) was incubated in each well of a Nunc Maxisorb plate (Nunc, Rochester, N.Y.) for 2 hours at room temperature. […] Subsequently, 100 μl of 2 N H₂SO₄ was added to stop the reaction and the plate was read in a SpectraMax 96 well plate reader at […]. […]
metric: IC50 (nM)
Field: numeric (nM). Do not append units.

Prompt line: Would you kindly share the measured IC50 for GGGUGGCUGGGGCAGGGGAGGUAGGUAGGG (mixed, dRmY: deoxy A,G; 2'-OMe C,U) [ARC873] ?
Response line: 330

Recorded values, source patent US20050037394.
